# system under test: Transthyretin (Homo sapiens, UniProt P02766)
# test method notes: Stabilization of wild type TTR (unknown origin) expressed in Escherichia coli assessed as reduction in methanol-induced aggregation incubated for 60 min by absorbance method
parameter measured: IC50 (µM)

{"chemical smiles": "Oc1c(Cl)cc(Cl)cc1Sc1cc(Cl)cc(Cl)c1O", "system under test": "Transthyretin (Homo sapiens, UniProt P02766)", "value reported": 3}

---

# Tested on: Transthyretin (Homo sapiens), P02766 [V50M]
# test method notes: Stabilization of TTR V30M mutant (unknown origin) assessed as acid-mediated protein aggregation inhibition ratio incubated for 1 week by absorbance method
# test parameters: time 1.0 weeks
parameter measured: Activity

{"chemical smiles": "Oc1c(Cl)cc(Cl)cc1Sc1cc(Cl)cc(Cl)c1O", "system under test": "Transthyretin (Homo sapiens), P02766 [V50M]", "value reported": "Dose-Dependent Effect"}
{"chemical smiles": "O=C(O)c1ccc2nc(-c3cc(Cl)cc(Cl)c3)oc2c1", "system under test": "Transthyretin (Homo sapiens), P02766 [V50M]", "value reported": "Dose-Dependent Effect"}
{"chemical smiles": "Cc1ccc(C(=O)c2cc(O)c(O)c([N+](=O)[O-])c2)cc1", "system under test": "Transthyretin (Homo sapiens), P02766 [V50M]", "value reported": "Dose-Dependent Effect"}
{"chemical smiles": "CSc1nc2cc(Cl)c(Oc3cccc(Cl)c3Cl)cc2[nH]1", "system under test": "Transthyretin (Homo sapiens), P02766 [V50M]", "value reported": "Dose-Dependent Effect"}
{"chemical smiles": "O=C(O)c1cc(-c2ccc(F)cc2F)ccc1O", "system under test": "Transthyretin (Homo sapiens), P02766 [V50M]", "value reported": "Dose-Dependent Effect"}

---

# system under test: Transthyretin (Homo sapiens, UniProt P02766, V50M)
# test method notes: Binding affinity to TTR V30M mutant (unknown origin) expressed in Escherichia coli incubated for 60 mins by tryptophan intrinsic fluorescence method
# test parameters: read-out: Kd(app)
pKd: −log10 of the molar value.
pKd values for the molecules below.

{"molecule": "Oc1c(Cl)cc(Cl)cc1Sc1cc(Cl)cc(Cl)c1O", "pKd": 5.96}
{"molecule": "CC(C)=COc1ccc(/C=C/C(O)c2ccc(OC=C(C)C)cc2OCC(=O)O)cc1 (stereo not drawn)", "pKd": 5.19}
{"molecule": "CC(C)c1ccc2oc3nc(N)c(C(=O)O)cc3c(=O)c2c1", "pKd": 4.70}
